Test: Selectivity index, ratio of IC50 for inhibition of thrombin (unknown origin) using H-D-Phe-Pip-Arg-pNA.2HCl as substrate to IC50 for inhibition of human FXIa using p-Glu-Pro-Arg-pNA.HCl as substrate
# Ratio IC50 annotations

Worked cases, answers included:
INSERT INTO results (compound, quantity_measured, experimental_result) VALUES
  ('CC[C@@H](c1cc(-c2ccc(N)nc2)ccn1)n1cc(OC)c(-c2cc(Cl)ccc2-n2cnnn2)cc1=O', 'Ratio IC50', '> 1000'),
  ('COc1cn(Cc2cc(-c3ccc(N)nc3)ccn2)c(=O)cc1-c1cc(Cl)ccc1-n1cnnn1', 'Ratio IC50', '> 1000'),
  ('CC[C@@H](c1cc(-c2ccc(N)nc2F)ccn1)n1cc(OC)c(-c2cc(Cl)ccc2-n2cnnn2)cc1=O', 'Ratio IC50', '> 1000'),
  ('CCC(c1cc(-c2ccc(N)nc2)ccn1)n1cc(OC)c(-c2cc(Cl)ccc2-n2cnnn2)cc1=O (racemic)', 'Ratio IC50', '> 1000');

Proceed to the following item.
Can you share its Ratio IC50? I mean this compound: "COc1cn(Cc2cc(-c3ccc(N)nc3F)ccn2)c(=O)cc1-c1cc(Cl)ccc1-n1cnnn1"
> 1000

Just for reference, ChEMBL document CHEMBL6109084 is where these values come from.
